The following compounds each carry a recorded pIC50 for S. aureus UPPS (Staphylococcus aureus).
Convention used: pIC50 is expressed as -log10 of the molar concentration.

Take a look at these entries with their results.
Compound	Readout label	Measurement
CCCCCCCCCCCCOc1cccc(O)c1C(=O)O [Compound 11, (Dodecyloxy)-6-hydroxybenzoic acid]	pIC50	5.77
O=P(O)(O)C(O)(Cc1cccc(-c2cccc3c2oc2ccccc23)c1)P(=O)(O)O [Compound 5, reference compound]	pIC50	6.46

Task: // query pIC50 value for entry CCCCCCCCOc1cccc(COc2ccc(Br)cc2P(=O)(O)O)c1
Output: 5.60

Task: // lookup pIC50 for CCCCCCCCCCOc1cccc(C(=O)Nc2ccc([N+](=O)[O-])cc2C(=O)O)c1
Output: 6.31

Task: What does the record list as pIC50 for NCCc1cc(Br)cc(C#Cc2cccc(C#Cc3cc(Br)cc(CCN)c3)c2)c1 ?
Output: 5.85

Task: Which pIC50 reading was recorded for the compound O=C(Nc1cccc(C2=NCCN2)c1)c1ccc(C(=O)Nc2cccc(C3=NCCN3)c2)c([N+](=O)[O-])c1 ?
Output: 5.31
